From: patent US4668677A

test: in vivo; conditions: rat, po, rats
Form field: LD50 (one value per entry).
Output spec: scalar in mg/kg, unitless text.

Below, 2 compounds whose answers are already recorded.
[
  {
    "COMPOUND": "CCCCCNc1nnc(-c2ccccc2)c2ccccc12 [compound 7]",
    "LD50 / mg/kg": 1780
  },
  {
    "COMPOUND": "CC(C)C(C)Nc1nnc(-c2ccccc2)c2ccccc12 (centres unmarked) [compound 10]",
    "LD50 / mg/kg": 2530
  }
]

Now, please, on to the next compound.
Find the recorded LD50 belonging to CCC(C)CNc1nnc(-c2ccccc2)c2ccccc12 (centres unmarked) [compound 9] and report it.
2180

====

system: mice; test: Anti-thrombotic activity: arachidonic acid-induced mortality in mice; assay type: in vivo, mouse (male ICR-JCL strain); conditions: 300 mg/Kg oral; arachidonic acid 100 mg/Kg i.v. after 1 hour
Form field: Mortality (one value per entry).
Output spec: scalar in %, unitless text.

Below, 3 compounds whose answers are already recorded.
[
  {
    "COMPOUND": "Clc1ccccc1CN1CCc2sccc2C1 [Ticlopidine, ticlopidine, reference compound]",
    "UNIT OF MEASURE": "%",
    "ENDPOINT VALUE": 100
  },
  {
    "COMPOUND": "CC(C)(C)CNc1nnc(-c2ccccc2)c2ccccc12",
    "UNIT OF MEASURE": "%",
    "ENDPOINT VALUE": 0
  },
  {
    "COMPOUND": "CC(=O)Oc1ccccc1C(=O)O",
    "UNIT OF MEASURE": "%",
    "ENDPOINT VALUE": 37.5
  }
]

Now, please, on to the next compound.
Find the recorded Mortality belonging to CCC(CC)Nc1nnc(-c2ccccc2)c2ccccc12 and report it.
0
